# System: CCRF-CEM
# TEST METHOD NOTES: NCI tumour cell line growth inhibition, 48 h
The source made the active and inactive calls. Rule as the data show it: active = GI50 up to about 1.1 µM and inactive = higher.
ENDPOINT LABEL: GI50

Below are worked cases with known answers.
| MOLECULE | GI50 |
| --- | --- |
| O=C1c2ccccc2C(=O)N1CCCOCc1cnc(O)nc1O | > 100 µM (inactive) |
| COC1C(O)C(O[C@H]2CC[C@@]3(C)C(CC[C@@H]4[C@@H]3CC[C@]3(C)[C@@H](C(C)OC5OC(CO)C(O)C(O)C5O)CC[C@]43O)C2)OC(C)C1OC1OC(CO)C(O)C(O)C1O (stereo not given in full) | > 100 µM (inactive) |
| Nc1ncn2c(n1)nc1ccccc12 | > 100 µM (inactive) |
| CC1=C(C(=O)NCc2ccccc2)C(c2ccc(C3C(C(=O)NCc4ccccc4)=C(C)NC(C)=C3C(=O)NCc3ccccc3)cc2)C(C(=O)NCc2ccccc2)=C(C)N1 | 3.39 µM (inactive) |
| NC1=NC2=C(CCCC2)C(c2cccs2)S1 (stereo not given) | 55 µM (inactive) |
| CC(C)(C)C1CCC2c3c([nH]c4ncccc34)C3C(=O)N(c4ccccc4)C(=O)C3C2C1 (stereo not given) | 49.7 µM (inactive) |
| COc1ccc(-c2onc(-c3ccc([N+](=O)[O-])cc3)c2C2=NCCCN2)cc1 | > 100 µM (inactive) |
| O=c1ccn(Cc2ccccc2CCl)c(=O)[nH]1 | 30.7 µM (inactive) |

Q: Requested read-out: GI50. Entry: CCOC(=O)C1=CC(C)(C(=O)OCC)Nc2c(nc(SC)n(C)c2=O)N1 (stereo not given)
Ans: > 10 µM (inactive)

Q: Requested read-out: GI50. Entry: NCCCNCCSP(=O)(O)O
Ans: 512 µM (inactive)
